SYSTEM UNDER TEST: T1, Rat GDF15 HIS: HIS-tagged rat GDF15 (rat, UniProt Q9Z0J6 189-303, limits assumed)
T1 construct: also called Rat His-GDF15; not shown: His tag
T1 sequence (looked up): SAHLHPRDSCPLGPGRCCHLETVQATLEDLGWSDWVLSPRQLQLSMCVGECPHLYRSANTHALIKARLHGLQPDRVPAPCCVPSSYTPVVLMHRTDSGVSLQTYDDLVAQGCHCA
EXPERIMENT DESCRIPTION: Biacore SPR, IgG captured via anti-human Fc, GDF15 in flow
Experimental: Biacore assay is based on surface plasmon resonance (SPR) and were used to determine the binding affinity of antibodies to GDF15. Anti-human Fc capture antibody was immobilized at 0.5 μg/ml on CMS chip in all four flow cells to achieve 8000 to 12,000 resonance units (RU) on the surface. Anti-hGDF15 antibodies were captured at flow rate […], at 0.25 to 0.5 μg/ml on the chip to get about 30 RU in flow cells 2, 3 and 4. […]
PROPERTY MEASURED: pKd
As a rule, pKd stands for the negative log10 of the concentration, concentration in M.

Recorded pKd, per entry:
ABGDF15-F (antibody, human IgG1, lambda, V domains shown, captured through anti-human Fc in the Biacore assay) VH: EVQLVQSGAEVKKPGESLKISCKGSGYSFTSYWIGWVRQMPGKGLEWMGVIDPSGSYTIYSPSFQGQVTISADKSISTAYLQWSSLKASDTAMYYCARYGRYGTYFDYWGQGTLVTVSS VL: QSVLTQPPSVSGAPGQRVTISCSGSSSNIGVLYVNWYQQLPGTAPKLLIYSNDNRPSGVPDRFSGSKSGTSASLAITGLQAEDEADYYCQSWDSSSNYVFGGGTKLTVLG ... 10.31
ABGDF15-C (antibody, human IgG1, lambda, V domains shown, captured through anti-human Fc in the Biacore assay) VH: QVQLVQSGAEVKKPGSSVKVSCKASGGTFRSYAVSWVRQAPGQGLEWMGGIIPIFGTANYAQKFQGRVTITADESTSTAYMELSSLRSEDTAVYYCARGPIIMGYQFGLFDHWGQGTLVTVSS VL: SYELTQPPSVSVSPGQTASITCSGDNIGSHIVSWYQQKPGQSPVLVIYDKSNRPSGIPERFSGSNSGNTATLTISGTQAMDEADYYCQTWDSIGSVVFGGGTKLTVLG ... 10.21

Exercise: Can you look up the measured pKd of ABGDF15-D (antibody, human IgG1, lambda, V domains shown, captured through anti-human Fc in the Biacore assay) VH: EVQLVQSGAEVKKPGESLKISCKGSGYSFTSYWIGWVRQMPGKGLEWMGVIDPDGSYTIYSPSFQGQVTISADKSISTAYLQWSSLKASDTAMYYCARYGRYGTYFDYWGQGTLVTVSS VL: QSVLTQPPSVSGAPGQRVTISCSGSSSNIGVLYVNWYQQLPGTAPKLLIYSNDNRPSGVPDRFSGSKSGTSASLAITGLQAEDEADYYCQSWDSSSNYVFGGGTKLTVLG for me?
Solution: 10.55
